- Test system: Puccinia triticina
- Measurement Notes: Wheat brown rust (PUCCRT), disease control on wheat seedlings
- Assay type: in vivo
- Recorded Conditions: 72 h, low volume application at 121.5 g/H, 3 Day Curative, wheat brown rust, read-out: PUCCRT 3DC disease control, LV activity

{"columns": ["Test Smiles", "Assayed Target", "pest or weed control at 121.5 g/ha"],
 "data": [
  ["COc1ccnc(C(=O)N[C@@H](C)C(=O)O[C@@H](C)[C@@H](c2ccc(C)cc2F)C(C)C)c1OC(C)=O", "Puccinia triticina", "< 80%"],
  ["COc1ccnc(C(=O)N[C@@H](C)C(=O)O[C@@H](C)[C@H](c2c(F)cc(F)cc2F)C(C)C)c1OC(C)=O", "Puccinia triticina", "> 80%"],
  ["COc1ccnc(C(=O)N[C@@H](C)C(=O)O[C@@H](C)[C@@H](c2ccc(F)cc2F)C(C)C)c1OC(C)=O", "Puccinia triticina", "< 0%"],
  ["COc1ccnc(C(=O)N[C@@H](C)C(=O)O[C@@H](C)[C@H](c2ccc(F)cc2C)C(C)C)c1OC(=O)C(C)(C)C", "Puccinia triticina", "< 80%"],
  ["COc1ccnc(C(=O)N[C@@H](C)C(=O)O[C@@H](C)[C@H](c2cc(F)ccc2F)C(C)C)c1OC(C)=O", "Puccinia triticina", "> 80%"],
  ["COc1ccnc(C(=O)N[C@@H](C)C(=O)O[C@@H](C)[C@H](c2ccc(F)cc2F)C(C)C)c1OC(C)=O", "Puccinia triticina", "> 80%"],
  ["COc1ccnc(C(=O)N[C@@H](C)C(=O)O[C@@H](C)[C@H](c2ccc(OC(F)(F)F)cc2)C(C)C)c1OC(C)=O", "Puccinia triticina", "< 80%"]
]}

Measured values drawn from patent US20180186742A1 for this set.
